Biological target: human CCR8 (human, UniProt P51685 1-355)
Experiment: cell-based or functional assay
Catalogue of hCCL1 (100 nM) residual response, Protocol #3, mAb 0.05 µg/mL readings, one per entry.

BINDER: 3-49 (antibody, V domains shown) VH: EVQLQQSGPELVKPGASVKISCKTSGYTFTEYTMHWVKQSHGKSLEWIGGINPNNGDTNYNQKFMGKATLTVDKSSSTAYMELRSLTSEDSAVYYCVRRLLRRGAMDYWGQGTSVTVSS VL: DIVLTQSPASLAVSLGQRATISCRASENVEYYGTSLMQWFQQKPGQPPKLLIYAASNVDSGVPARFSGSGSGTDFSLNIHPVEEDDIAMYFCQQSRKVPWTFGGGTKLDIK
MEAS_VALUE: 102%

BINDER: 3-21 (antibody, V domains shown) VH: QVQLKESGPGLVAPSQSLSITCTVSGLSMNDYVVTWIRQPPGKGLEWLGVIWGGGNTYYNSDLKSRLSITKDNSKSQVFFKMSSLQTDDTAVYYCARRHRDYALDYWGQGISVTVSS VL: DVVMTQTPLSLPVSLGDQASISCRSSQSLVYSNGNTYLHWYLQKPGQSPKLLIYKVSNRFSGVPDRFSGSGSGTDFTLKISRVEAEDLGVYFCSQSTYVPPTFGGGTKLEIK
MEAS_VALUE: 99%

// next item, hCCL1 (100 nM) residual response, Protocol #3, mAb 0.05 µg/mL requested
Entry 3-46 (antibody, V domains shown) VH: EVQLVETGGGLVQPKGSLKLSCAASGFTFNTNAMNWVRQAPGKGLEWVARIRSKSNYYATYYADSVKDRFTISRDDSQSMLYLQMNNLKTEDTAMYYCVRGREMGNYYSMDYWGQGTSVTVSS VL: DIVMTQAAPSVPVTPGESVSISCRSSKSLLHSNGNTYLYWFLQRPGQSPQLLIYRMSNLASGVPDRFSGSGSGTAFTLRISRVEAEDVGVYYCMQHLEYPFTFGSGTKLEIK : reported hCCL1 (100 nM) residual response, Protocol #3, mAb 0.05 µg/mL = ? 69%
